assay-summary: qHTS screen for small molecules that inhibit ELG1-dependent DNA repair in human embryonic kidney (HEK293T) cells expressing luciferase-tagged ELG1; also: nearly all actives have a fitted effect of over 55% in size
condition-set: HEK293T ELG1-luciferase reporter, luminescence, 16 h, DNA damage induced by 5-fluorouridine; series mostly up to 46.1 µM
Excerpt: NIH Molecular Libraries Probe Production Network [MLPCN] NIH Chemical Genomics Center [NCGC] MLPCN Grant: 1 R03 MH092164-01 Assay Provider: Kyungjae Myung, NHGRI, NIH Keywords: MLPCN, qHTS, NCGC, genotoxicity, cancer Assay Overview: Cancer cells divide rapidly compared to normal cells in the body. During cell division, cancer cells need to duplicate their genome by DNA replication. […] With this in mind, we developed a quantitative high-throughput ELG1-luciferase reporter gene assay. […]
The whole screen tested about 330,000 compounds, of which about 7,700 (2.3%) were called active. Roughly 26% stayed inconclusive and do not appear here. Calls follow the shape of the dose curve; as a rule, active = well fitted inhibition curve with a large enough effect; inconclusive = small, poorly fitted or top-dose-only effect, or effect the other way; inactive = flat fitted curve, though single readings scatter. This excerpt belongs to a sample that is enriched for actives.
Outcome codes: Y (active), N (inactive)

- molecule: "COc1ccc(C(C(=O)NCC2CCCO2)N(C(=O)Cn2nnc3ccccc32)c2ccc(NC(C)=O)cc2)cc1OC (stereo not given)"
  classification: "N"
- molecule: "O=C(NC(Cc1c[nH]c2ccccc12)C(=O)N/N=C/c1ccc(Br)cc1)c1cccs1 (stereo not given)"
  classification: "Y"
- molecule: "CC(=O)NC(Cc1c[nH]c2ccccc12)C(=O)O (stereo not given)"
  classification: "N"
- molecule: "Cc1cc(C)c(-c2csc(NC(=O)CCCc3nc4ccccc4c(=O)[nH]3)n2)c(C)c1"
  classification: "Y"
- molecule: "Cc1cc(C)n2nc(C(=O)Nc3cccc(S(=O)(=O)N4CCOCC4)c3)nc2n1"
  classification: "N"

The values you see were collected from PubChem BioAssay AID504467.
